- target_system: NO synthase (Rattus norvegicus)
- Construct: the supernatant was then removed by decantation and frozen in portions at −80° C; from tissue; host or cells: rat cerebellum, 20,000 g supernatant of homogenate
- procedure_text: HTS-NOS assay (NOS assay): conversion of radioactive arginine, cation-exchanger filter plate
- Format: biochemical
- conditions_used: read-out: HTS-NOS assay: % inhibition (10 μM)
property_name: inhibition at 10 µM (%)

| compound | endpoint_unit | inhibition at 10 µM |
| --- | --- | --- |
| COc1cccc(-c2nc3cc(C)cc(C)n3c2N(C(C)=O)C(C)(C)CC(C)(C)C)c1OC [Example 194] | % | 59 |
| CCCc1cccc2nc(-c3cccnc3)c(N(C(C)=O)C(C)(C)C)n12 [Example 265] | % | 54 |
| COc1ccccc1-c1nc2cc(C)ccn2c1N(C(C)=O)C(C)(C)CC(C)(C)C [Example 199] | % | 57 |
| COc1cc(-c2nc3c(C)cc(Br)cn3c2N(C(C)=O)c2c(C)cccc2C)ccc1OC(C)=O [Example 213] | % | 69 |
| CC(=O)N(c1c(-c2ccc(C(=O)O)s2)nc2cccc(C)n12)C(C)(C)C [Example 183] | % | 50 |
| CC(=O)N(c1c(-c2cc3ccccc3c3ccccc23)nc2cc(C)ccn12)C(C)(C)C [Example 208] | % | 63 |
| CC(=O)N(c1c(-c2cc3ccccc3o2)nc2c(C)cccn12)C(C)(C)CC(C)(C)C [Example 286] | % | 59 |
| Cc1ccn2c(NC3CCCCC3)c(-c3ccccn3)nc2c1 [Example 140] | % | 55 |
